// reported SGCB cell-surface expression functional score (log10) for each item listed
B1: library; numbered along this chain (parent)
chain: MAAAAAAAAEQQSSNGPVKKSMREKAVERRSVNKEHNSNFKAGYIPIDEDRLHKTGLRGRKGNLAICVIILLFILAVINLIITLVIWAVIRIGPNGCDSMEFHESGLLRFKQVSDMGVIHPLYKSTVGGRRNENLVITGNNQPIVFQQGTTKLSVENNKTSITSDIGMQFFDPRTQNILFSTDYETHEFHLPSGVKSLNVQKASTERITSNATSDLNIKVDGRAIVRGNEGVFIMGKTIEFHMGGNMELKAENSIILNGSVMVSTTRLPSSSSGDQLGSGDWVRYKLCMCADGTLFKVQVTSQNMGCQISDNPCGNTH

- Variants of: B1
- protocol.summary: SGCB cell-surface expression functional score (HA stain, bin4 vs bin1, normalised to synonymous) (log10 ratio); higher = more cell-surface SGCB (functional)
Lab note: record just the number, no unit beside it.

Below, each entry is followed by its recorded SGCB cell-surface expression functional score (log10) result.
I256M = 0.29
I69R = 0.11
R227E = 1.04
A4W = -0.07
M100E = -1.92
A26I = 0.06
C290Y = -0.57
N141P = -0.87
N63V = -0.44
A8T = 0.33

query: Would you mind telling me what SGCB cell-surface expression functional score (log10) value was observed for "L249S" ?
result: 0.16

query: Do the same for "S264Q" please
result: 0.39

query: Do the same for "N316S" please
result: -0.05

query: Do the same for "N140H" please
result: -0.65

query: Do the same for "Q176K" please
result: -0.32
